Test system: MDCK-LE monolayers
Assay: Cell-based transwell assay with MDCK-low efflux monolayers (passive permeability)
Format: in vitro ADME
Conditions: MDCK-LE monolayers
Procedure: Cell-based transwell assays with MDCK-low efflux monolayers: Compounds (A1) and 2-15 were tested in MDCK cell sub-clones with low effluxt ransporter activity (MDCK-LE) in order to determine their passive permeability. The incubations were performed at a contract research organization as described previously.
Starred links: 1 amine or outer side, 2 acyl side, 3 side chain; linkers in the order of their positions; H or OH if unused. Positions of bridges follow the written chain, without caps; N, C: chain ends. Non-standard residues stand in square brackets, D forms with d. Residues, ends and D or L forms follow the SMILES beside them. *: point of attachment. Leu(3R-OH,Nα-propionyl) = CCC(=O)N[C@H](C(=O)*)[C@H](O)C(C)C; X1 = CC(C)[C@@H](O[*:3])[C@H](N[*:1])C(=O)[*:2]; X4 = CCC(=O)N[C@H](C(=O)*)[C@H](O)CSC; NMeT = CN[C@H](C(=O)O)[C@@H](C)O; dPhLac = O=C(O)[C@H](O)Cc1ccccc1; NMeA = CN[C@@H](C)C(=O)O; dNMeA = CN[C@H](C)C(=O)O; NMeDha = C=C(NC)C(=O)O
property_label: % Recovery
The answer consists of two parts: a number and, after it, its unit.

>>> value_reported("C=C1C(=O)N[C@@H](C)C(=O)N(C)[C@@H](C)C(=O)N[C@@H]([C@H](OC(=O)[C@@H](NC(=O)CC)[C@H](O)CSC)C(C)C)C(=O)N(C)[C@@H]([C@@H](C)OC)C(=O)O[C@H](C(C)C)[C@H](NC(C)=O)C(=O)O[C@H](Cc2ccccc2)C(=O)N1C [Compound 4] (Ac-[X1][dPhLac][NMeDha]A[NMeA][X1](X4)[NMeT](Me); ester 1-C)")
"75%"

Okay, next one:
Need % Recovery, item CCC(=O)N[C@H](C(=O)O[C@H](C(C)C)[C@@H]1NC(=O)[C@H](C)N(C)C(=O)[C@H](C)NC(=O)[C@@H](C)N(C)C(=O)[C@@H](Cc2ccccc2)OC(=O)[C@@H](NC(C)=O)[C@@H](C(C)C)OC(=O)[C@H]([C@@H](C)OC)N(C)C1=O)[C@H](O)C(C)C [Compound 11] (Ac-[X1][dPhLac][dNMeA]A[NMeA][X1](Leu(3R-OH,Nα-propionyl))[NMeT](Me); ester 1-C)
76%
